Data origin, for the record: patent US20200368267A1

# Test system: MNs with mutant SOD1 gene (L144FVX)
# Test description: Large scale screen using ALS MN (MN survival readout)
# Assay type: cell-based, human
# Settings: compounds at final concentration 10 μM added on day 7, cells fixed and stained on day 14; viable MNs stained with βIII-tubulin
Where a name gives a salt, the structure may show the parent alone.
Item-by-item account of MN index

Molecule: Cc1c(C)c2c(c(C)c1O)CCC(C)(CCCC(C)CCCC(C)CCCC(C)C)O2 (stereo not drawn) [alpha-tochopherol]
Assayed target: MNs with mutant SOD1 gene (L144FVX)
MN index: 9.456
--
Molecule: Cc1cc(Nc2cc(N3CCN(C)CC3)nc(Sc3ccc(NC(=O)C4CC4)cc3)n2)n[nH]1 [VX-680]
Assayed target: MNs with mutant SOD1 gene (L144FVX)
MN index: 9.578
--
Molecule: CCN(CCCCOC(=O)c1ccc(OC)c(OC)c1)C(C)Cc1ccc(OC)cc1 (stereo not shown) [mebeverine hydrochloride]
Assayed target: MNs with mutant SOD1 gene (L144FVX)
MN index: 6.856
--
Molecule: Cc1nc(Nc2ncc(C(=O)Nc3c(C)cccc3Cl)s2)cc(N2CCN(CCO)CC2)n1 [dasatinib]
Assayed target: MNs with mutant SOD1 gene (L144FVX)
MN index: 6.659
--
Molecule: Cc1ccc(Nc2nccc(N(C)c3ccc4c(C)n(C)nc4c3)n2)cc1S(N)(=O)=O [pazopanib hydrochloride]
Assayed target: MNs with mutant SOD1 gene (L144FVX)
MN index: 9.533
--
Molecule: Cn1cc(C2=C(c3cn(C4CCN(Cc5ccccn5)CC4)c4ccccc34)C(=O)NC2=O)c2ccccc21 [enzastaurin]
Assayed target: MNs with mutant SOD1 gene (L144FVX)
MN index: 9.841
--
Molecule: Oc1ccc(O)cc1 [hydroquinone]
Assayed target: MNs with mutant SOD1 gene (L144FVX)
MN index: 7.957
--
Molecule: CC1(C)O[C@@H]2C[C@H]3[C@@H]4C[C@H](F)C5=CC(=O)C=C[C@]5(C)[C@H]4[C@@H](O)C[C@]3(C)[C@]2(C(=O)CO)O1 [flunisolide]
Assayed target: MNs with mutant SOD1 gene (L144FVX)
MN index: 7.857
--
Molecule: O=C(c1ccc(/C=C/c2n[nH]c3ccccc23)cc1)N1CCNCC1 [KW 2449]
Assayed target: MNs with mutant SOD1 gene (L144FVX)
MN index: 7.722
--
Molecule: CCCCOC(=O)c1ccc(N)cc1 [butamben]
Assayed target: MNs with mutant SOD1 gene (L144FVX)
MN index: 7.391
--
Molecule: Cc1cc2nc3c(=O)[nH]c(=O)nc-3n(C[C@H](O)[C@H](O)[C@H](O)CO)c2cc1C [riboflavin]
Assayed target: MNs with mutant SOD1 gene (L144FVX)
MN index: 9.554
--
Molecule: O=C(O)CCC(=O)c1ccc(-c2ccccc2)cc1 [fenbufen]
Assayed target: MNs with mutant SOD1 gene (L144FVX)
MN index: 7.224
--
Molecule: COc1cc(Nc2c(C#N)cnc3cc(OCCCN4CCN(C)CC4)c(OC)cc23)c(Cl)cc1Cl [bosutinib (SKI-606), bosutinib]
Assayed target: MNs with mutant SOD1 gene (L144FVX)
MN index: 7.196
--
Molecule: CN(C)CCCn1cc(C2=C(c3c[nH]c4ccccc34)C(=O)NC2=O)c2ccccc21 [bisindolylmaleimide I]
Assayed target: MNs with mutant SOD1 gene (L144FVX)
MN index: 7.963
--
Molecule: CCN(CC)CCNC(=O)c1c(C)[nH]c(/C=C2\C(=O)Nc3ccc(F)cc32)c1C [sunitinib malate]
Assayed target: MNs with mutant SOD1 gene (L144FVX)
MN index: 8.133
--
Molecule: COCCNCc1ccc(-c2cc3nccc(Oc4ccc(NC(=S)NC(=O)Cc5ccc(F)cc5)cc4F)c3s2)nc1 [MGCD-265]
Assayed target: MNs with mutant SOD1 gene (L144FVX)
MN index: 7.623
